Test: LDH cytotoxic activity assay, HT29
Assay type: cell-based
Conditions: human, HT29 cells, HT29, 75 μg/mL
Protocol: The cell lines were cultured in a cell medium (Dulbecco’s modified eagle’s or RPMI 1640) enriched with 10% (v/v) fetal bovine serum and 2% (v/v) Penicillin-Streptomycin (10,000 U/mL). […] Approximately 5 × 10^3 cells in 100 μL were placed into 96-well plates as triplicates and treated with 25, 50, 75, and 100 μg/mL concentrations of test compounds at 37 °C with 5% CO2 for 24 h. LDH activity was obtained by determining absorbance at 492–630 nm using a microplate reader.
// map cytotoxicity at 24 h, 75 μg/mL onto a label; ranges band A = under 60%, band B = from 60% up to 70%, band C = 70% and over

[[record]]
molecule = "CC(=O)OC[C@H]1O[C@@H](Nc2nc(-c3ccccn3)cc(-c3ccccc3C)n2)[C@H](OC(C)=O)[C@@H](OC(C)=O)[C@@H]1OC(C)=O [Compound 10]"
discrete_label = "band B"

[[record]]
molecule = "CC(=O)OC[C@H]1O[C@@H](Nc2nc(-c3ccc(C)cc3)cc(-c3ccccn3)n2)[C@H](OC(C)=O)[C@@H](OC(C)=O)[C@@H]1OC(C)=O [Compound 16]"
discrete_label = "band A"

[[record]]
molecule = "Cc1ccc(-c2cc(-c3ccncc3)nc(N[C@@H]3O[C@H](CO)[C@@H](O)[C@H](O)[C@H]3O)n2)cc1 [Compound 9]"
discrete_label = "band C"

[[record]]
molecule = "Cc1ccc(-c2cc(-c3ccccn3)nc(N[C@@H]3O[C@H](CO)[C@@H](O)[C@H](O)[C@H]3O)n2)cc1 [Compound 7]"
discrete_label = "band C"

[[record]]
molecule = "CC(=O)OC[C@H]1O[C@@H](Nc2nc(-c3ccncc3)cc(-c3ccc(C)cc3)n2)[C@H](OC(C)=O)[C@@H](OC(C)=O)[C@@H]1OC(C)=O [Compound 18]"
discrete_label = "band A"

[[record]]
molecule = "CC(=O)OC[C@H]1O[C@@H](Nc2nc(-c3ccncc3)cc(-c3cccc(C)c3)n2)[C@H](OC(C)=O)[C@@H](OC(C)=O)[C@@H]1OC(C)=O [Compound 15]"
discrete_label = "band B"

[[record]]
molecule = "CC(=O)OC[C@H]1O[C@@H](Nc2nc(-c3ccncc3)cc(-c3ccccc3C)n2)[C@H](OC(C)=O)[C@@H](OC(C)=O)[C@@H]1OC(C)=O [Compound 12]"
discrete_label = "band B"

[[record]]
molecule = "Cc1ccccc1-c1cc(-c2cccnc2)nc(N[C@@H]2O[C@H](CO)[C@@H](O)[C@H](O)[C@H]2O)n1 [Compound 2]"
discrete_label = "band C"

[[record]]
molecule = "Cc1cccc(-c2cc(-c3ccccn3)nc(N[C@@H]3O[C@H](CO)[C@@H](O)[C@H](O)[C@H]3O)n2)c1 [Compound 4]"
discrete_label = "band B"

[[record]]
molecule = "Cc1cccc(-c2cc(-c3cccnc3)nc(N[C@@H]3O[C@H](CO)[C@@H](O)[C@H](O)[C@H]3O)n2)c1 [Compound 5]"
discrete_label = "band C"


----------
Experiment: LDH cytotoxic activity assay, HeLa
Type: cell-based
Settings: human, HeLa cells, 100 μg/mL
cytotoxicity at 24 h, 100 μg/mL values, listed per item
Assay Readout: cytotoxicity at 24 h, 100 μg/mL (%)

[[record]]
compound = "Cc1ccccc1-c1cc(-c2ccncc2)nc(N[C@@H]2O[C@H](CO)[C@@H](O)[C@H](O)[C@H]2O)n1 [Compound 3]"
reported_measurement = 56.9

[[record]]
compound = "CC(=O)OC[C@H]1O[C@@H](Nc2nc(-c3cccnc3)cc(-c3cccc(C)c3)n2)[C@H](OC(C)=O)[C@@H](OC(C)=O)[C@@H]1OC(C)=O [Compound 14]"
reported_measurement = 48.8

[[record]]
compound = "CC(=O)OC[C@H]1O[C@@H](Nc2nc(-c3ccc(C)cc3)cc(-c3cccnc3)n2)[C@H](OC(C)=O)[C@@H](OC(C)=O)[C@@H]1OC(C)=O [Compound 17]"
reported_measurement = 48.6

